# SARM1 (50-724) (Homo sapiens (Human), UniProt Q6SZW1): IC50 values follow
# Sequence (Q6SZW1 50-724): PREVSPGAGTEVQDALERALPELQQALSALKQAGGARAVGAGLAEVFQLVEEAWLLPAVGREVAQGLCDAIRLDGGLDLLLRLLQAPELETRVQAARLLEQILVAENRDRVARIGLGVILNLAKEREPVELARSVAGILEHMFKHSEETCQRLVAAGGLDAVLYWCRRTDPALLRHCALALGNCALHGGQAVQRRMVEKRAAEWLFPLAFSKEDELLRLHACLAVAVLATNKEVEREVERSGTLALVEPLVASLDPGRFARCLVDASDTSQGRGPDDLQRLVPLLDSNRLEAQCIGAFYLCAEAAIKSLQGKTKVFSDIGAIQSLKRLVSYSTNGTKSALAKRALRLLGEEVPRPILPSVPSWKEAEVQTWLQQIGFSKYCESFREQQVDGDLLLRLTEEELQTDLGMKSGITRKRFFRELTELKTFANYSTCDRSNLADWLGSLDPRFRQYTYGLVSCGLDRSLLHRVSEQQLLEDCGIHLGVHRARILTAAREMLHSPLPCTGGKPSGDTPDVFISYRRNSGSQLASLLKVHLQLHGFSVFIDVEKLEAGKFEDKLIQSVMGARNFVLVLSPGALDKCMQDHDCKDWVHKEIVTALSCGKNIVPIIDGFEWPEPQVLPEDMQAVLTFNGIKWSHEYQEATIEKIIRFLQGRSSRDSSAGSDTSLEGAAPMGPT

Here is how some molecules turned out for IC50.
Ask: // lookup IC50 | system=SARM1 (50-724) (Homo sapiens (Human), UniProt Q6SZW1) | key= CC(=O)c1ccc(-c2cnccc2C)cc1O [Compound 38]
Result: 5 to 15 µM

Ask: Kindly state the measured IC50 obtained for Cc1ccncc1-c1ccc2c(c1)C(F)(F)C(=O)N2 [Compound 81] with SARM1 (50-724) (Homo sapiens (Human), UniProt Q6SZW1).
Result: < 5 µM

Ask: Recorded IC50 for CC(=O)Nc1nc2cc(-c3cnccc3C)ccc2[nH]1 [Compound 73] with SARM1 (50-724) (Homo sapiens (Human), UniProt Q6SZW1), please?
Result: < 5 µM

Ask: Reported IC50 for SARM1 (50-724) (Homo sapiens (Human), UniProt Q6SZW1), given Cc1ccncc1-c1cc(F)c(O)c(Cl)c1 [Compound 61] ?
Result: 5 to 15 µM

Ask: Recorded IC50 for O=c1[nH]c2ccc(-c3cncc(Nc4cccc(O)c4)c3)cc2o1 [Compound 95] with SARM1 (50-724) (Homo sapiens (Human), UniProt Q6SZW1), please?
Result: < 5 µM

***
Ask: Identify the measured IC50 of Cc1cc(Cl)ncc1-c1ccc2[nH]c(=O)oc2c1 [Compound 66] for SARM1 (50-724) (Homo sapiens (Human), UniProt Q6SZW1).
Result: 15 to 30 µM

Ask: Which IC50 is reported with SARM1 (50-724) (Homo sapiens (Human), UniProt Q6SZW1) for this entry: Cc1ccncc1-c1ccc2[nH]nc(N)c2c1 [Compound 65] ?
Result: > 30 µM

Ask: Value wanted: IC50 (SARM1 (50-724) (Homo sapiens (Human), UniProt Q6SZW1)) of entry Cc1ccncc1-c1ccc2c(c1)COC(=O)N2 [Compound 59]
Result: < 5 µM

Ask: Fill in the recorded IC50 for this molecule, with SARM1 (50-724) (Homo sapiens (Human), UniProt Q6SZW1) as test system: Cc1ccncc1-c1ccc2[nH]c(C#N)nc2c1 [Compound 89]
Result: < 5 µM
